assay: Apparent oral clearance in CD-1 mouse at 50 mg/kg, po by LC-MS/MS analysis; format: ADME, organism-based; conditions: in vivo
Catalogue of CL/F values
Report the figure along with its unit, number first.

Some solved cases for reference:
| MOLECULE | REPORTED MEASUREMENT |
| --- | --- |
| COc1cc2c(OC3CCNCC3)c3c(c(-c4ccc5c(c4)OCO5)c2cc1OC)C(=O)OC3 | 14.1 mL/min |
| COc1cc2c(OCCCC#N)c3c(c(-c4ccc5c(c4)OCO5)c2cc1OC)C(=O)OC3 | 5.18 mL/min |

Next up:
Data request, read-out CL/F, for COc1cc2c(OC3CCOC3)c3c(c(-c4ccc5c(c4)OCO5)c2cc1OC)C(=O)OC3 (stereo not drawn)
2.25 mL/min
